- protocol text: Cytotoxicity on uninfected splenic explants (Alamar Blue)
- Format: cell-based, BALB/c mice
- settings: mouse; uninfected splenic explants from BALB/c mice, Alamar Blue; read-out: CC50 Murine Splenocytes
Catalogue of molecules with associated CC50 at 72 h
measurement name: CC50 at 72 h (µM)

| molecule | measurement name | unit symbol | reported result |
| --- | --- | --- | --- |
| O=c1c2ccccc2cc2n1Cc1c-2nc2ccccc2c1CCCn1ccnc1 [Compound 5] | CC50 at 72 h | µM | 2.31 |
| NCCCc1c2c(nc3cc4c(cc13)OCCO4)-c1cc3ccccc3c(=O)n1C2 [Compound 7] | CC50 at 72 h | µM | 0.31 |
| CC[C@@]1(O)C(=O)OCc2c1cc1n(c2=O)Cc2cc3ccccc3nc2-1 [CPT, Camptothecin, reference compound] | CC50 at 72 h | µM | 0.62 |

* * *

- protocol text: Cytotoxicity on uninfected splenic explants (Alamar Blue)
- Type: cell-based, BALB/c mice
- settings: mouse, uninfected splenic explants (murine splenocytes); uninfected splenic explants from BALB/c mice, Alamar Blue
Catalogue of compounds with associated CC50 at 72 h
measurement name: CC50 at 72 h (µM)

| compound | measurement name | unit symbol | reported result |
| --- | --- | --- | --- |
| NCCCCNCc1c2c(nc3ccccc13)-c1cc3ccccc3c(=O)n1C2 [Compound 3] | CC50 at 72 h | µM | 2.53 |
| CN(C)Cc1c2c(nc3cc4c(cc13)OCCO4)-c1cc3ccccc3c(=O)n1C2 [Compound 8] | CC50 at 72 h | µM | 3.72 |
| CN(C)CCCc1c2c(nc3cc4c(cc13)OCCO4)-c1cc3ccccc3c(=O)n1C2 [Compound 9] | CC50 at 72 h | µM | 3.04 |
| NCCNCc1c2c(nc3ccccc13)-c1cc3ccccc3c(=O)n1C2 [Compound 2] | CC50 at 72 h | µM | 2.17 |
| O=c1c2ccccc2cc2n1Cc1c-2nc2cc3c(cc2c1Cn1ccnc1)OCCO3 [Compound 10] | CC50 at 72 h | µM | 5.56 |
| CN(C)CCCc1c2c(nc3ccccc13)-c1cc3ccccc3c(=O)n1C2 [Compound 1] | CC50 at 72 h | µM | 4.41 |
| O=c1c2ccccc2cc2n1Cc1c-2nc2cccc(Cl)c2c1CNCCCn1ccnc1 [Compound 6] | CC50 at 72 h | µM | 0.7 |
| O=c1c2ccccc2cc2n1Cc1c-2nc2ccccc2c1CCCNCCO [Compound 4] | CC50 at 72 h | µM | 4.96 |

* * *

- Tested on: L. infantum WT strain
- protocol text: Susceptibility of WT strain promastigotes
- Assay type: cell-based, Leishmania infantum
- Description: In order to evaluate if aromathecins would share the transporter involved in CPT resistance, one of the major problems related to the loss of effectiveness of CPT derivatives, a CPT-resistant strain was generated. The CPT-resistant strain used was generated by the exposure of L. infantum promastigotes to increasing concentrations of CPT, from 0.1 to 20 μM (CPT-20, from now on). […]

| compound | EC50 (µM) |
| --- | --- |
| CCc1c2c(nc3ccc(O)cc13)-c1cc3c(c(=O)n1C2)COC(=O)[C@]3(O)CC [SN38] | 4.73 |
